System: HBV (HepG2.117 cell line, inducibly HBV producing)
assay.remarks: Anti-HBV activity: intracellular HBV DNA by real-time PCR in HepG2.117 cells after 3 days of treatment
Format: cell-based, hepatitis B virus
experimental.parameters: Hepatitis B virus, HepG2.117, 72 h, HepG2.117 cells, 3 days of treatment, intracellular HBV DNA by real-time PCR; mean value; read-out: EC50 (μM, mean value)
readout.type: EC50 (µM)
Write down the numeric answer in µM and omit the unit.

// query EC50 value for entry C#C[C@@H]1CCCN1c1nc2c(c(=O)n1-c1ccc(C(=O)NC)cc1)C[C@@H](C)N(C(=O)c1ccc(Cl)c(Cl)c1)C2 (single isomer, unassigned) [Compound C351] 0.2

// query EC50 value for entry COCCn1c(NCc2ccccc2)nc2c(c1=O)CCN(C(=O)c1ccc(Cl)c(Cl)c1)C2 [Compound C28] 9.1

// query EC50 value for entry COc1ccc(CNc2nc3c(c(=O)n2-c2ccc(-c4ncco4)cc2)CCN(C(=O)c2ccc(Cl)c(Cl)c2)C3)cc1 [Compound C160] 0.54

// query EC50 value for entry COc1ccc(CNc2nc3c(c(=O)n2-c2cnccc2C)CCN(C(=O)c2ccc(Cl)c(Cl)c2)C3)cc1 [Compound C113] 0.65

Data origin, for the record: patent US20230091047A1
